Hi there, I'd appreciate the recorded SPOT intensity for every entry that follows.
# ASSAY TARGET: T1, Cyk3, Q07533
# T1 sequence (Q07533 1-83, looked up): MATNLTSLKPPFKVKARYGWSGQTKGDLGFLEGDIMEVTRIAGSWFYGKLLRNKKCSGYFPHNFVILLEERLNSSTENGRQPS
# PROTOCOL NOTES: SPOT array
# SETTINGS: median of control spots 1451
Respond with the number and no other words.

Task: Dear colleague, I am looking for the recorded SPOT intensity of the following binder: AATTSTPPLPRRRAT
Output: 1

Task: Also HHNRRKPLEVYFKAT ?
Output: 3

Task: What about NILKRRPLKLEAPSK ?
Output: 4

Task: Note, next up: RFKRHRLEFPFNESE
Output: 0

Task: Item: NLDRSKISLPDFDDE
Output: 4

Task: Then what about the binder NPTKSPPPPPSPSTM ?
Output: 1

Task: Same thing, different binder: LKRITSPPLPPRADS
Output: 0

Task: # repeat for TKHKAPPPPPPTAET
Output: 0

Task: Another binder to look at: RKQRSIPLSPIVPES
Output: 0

Task: One more binder: GSKSGPPPRPKKPST
Output: 3

Task: Another binder to look at: ISPPASPPPEFDFSK
Output: 1

Task: Now try TPEIPPPLPPKIMVH .
Output: 0

Every entry's value here was drawn from paper PMC2756588.
